Reference for the values: patent US8962244B2

# TGT: POS-1 (Caenorhabditis elegans, UniProt G5EF15)
# Construct: 6-his tag (N); made in house; host or cells: E. coli BL21 (DE3) Gold
# TEST_SUMMARY: Fluorescence polarization screening of POS-1 binding to fluorescein-labeled BMF018 RNA
# CONDITION_PARAMETERS: 192 μM test compound; score = polarization relative to no-drug and no-protein controls; 0.25 = 75% inhibition; lowest score = greatest inhibition; read-out: POS-1 score
// returns 0 unless remaining activity at 192 µM is strictly below 10%, in which case 1

Sample answers from the record:
In: Does the reported remaining activity at 192 µM of the following compound sit strictly below 10%? O=C(NC(=S)Nc1ccc(Cl)c(C(=O)O)c1)c1ccc(-c2ccccc2)cc1
Out: 0

In: Does the reported remaining activity at 192 µM of the following compound sit strictly below 10%? Cc1n[nH]c(SCc2ccc(CSc3nc(C)n[nH]3)cc2)n1
Out: 1

In: Does the reported remaining activity at 192 µM of the following compound sit strictly below 10%? Cc1ccc(S(=O)(=O)NC(=S)NCc2cccc(Oc3ccccc3)c2)cc1
Out: 0

In: Does the reported remaining activity at 192 µM of the following compound sit strictly below 10%? O=C(O)c1ccc(NC(=S)NC(=O)c2ccc(I)cc2)cc1
Out: 1

In: Does the reported remaining activity at 192 µM of the following compound sit strictly below 10%? O=C(O)c1cccc(NC(=S)NC(=O)c2ccc(-c3ccc(Cl)cc3)o2)c1
Out: 0

In: Does the reported remaining activity at 192 µM of the following compound sit strictly below 10%? Cc1cc(NS(=O)(=O)c2ccc(Nc3nc(-c4ccc(F)c(C)c4)cs3)cc2)no1
Out: 0

In: Does the reported remaining activity at 192 µM of the following compound sit strictly below 10%? O=C(O)C1CCC(N2C(=O)c3c(Cl)c(Cl)c(Cl)c(Cl)c3C2=O)CC1 (centres unmarked)
Out: 1

In: Does the reported remaining activity at 192 µM of the following compound sit strictly below 10%? COc1ccc(S(=O)(=O)Nc2ccc(C)cc2NS(=O)(=O)c2ccc(OC)cc2)cc1
Out: 0

More entries:
In: Does the reported remaining activity at 192 µM of the following compound sit strictly below 10%? CCCCN1C(=O)/C(=c2\sc3nc(-c4ccccc4OC(C)=O)nn3c2=O)c2ccccc21
Out: 0

In: Does the reported remaining activity at 192 µM of the following compound sit strictly below 10%? CC1(C)CC(Cc2nnc(S)[nH]2)C(=O)O1 (centres unmarked)
Out: 0

In: Does the reported remaining activity at 192 µM of the following compound sit strictly below 10%? O=C(O)c1ccc(Sc2nnc(-c3cccc(Br)c3)o2)c([N+](=O)[O-])c1
Out: 0

In: Does the reported remaining activity at 192 µM of the following compound sit strictly below 10%? Cc1ccc(NS(=O)(=O)c2ccc(F)cc2)c(NS(=O)(=O)c2ccc(F)cc2)c1
Out: 0

In: Does the reported remaining activity at 192 µM of the following compound sit strictly below 10%? O=C(NC(=S)Nc1ccccc1C(=O)O)c1cc(I)ccc1Cl
Out: 0

In: Does the reported remaining activity at 192 µM of the following compound sit strictly below 10%? O=C(O)C1Nc2cc(Cl)cc(Cl)c2C2C=CCC12 (centres unmarked)
Out: 1

In: Does the reported remaining activity at 192 µM of the following compound sit strictly below 10%? CCCC(=O)NC(c1ccc(Cl)cc1)c1cc([N+](=O)[O-])c2cccnc2c1O (centres unmarked)
Out: 0

In: Does the reported remaining activity at 192 µM of the following compound sit strictly below 10%? Sc1nnc(CSCc2ccccc2Cl)n1-c1ccccc1
Out: 0

In: Does the reported remaining activity at 192 µM of the following compound sit strictly below 10%? Cc1ccc(S(=O)(=O)NCc2nc3ccccc3[nH]2)cc1
Out: 0

In: Does the reported remaining activity at 192 µM of the following compound sit strictly below 10%? CC(=O)Oc1ccc(S(=O)(=O)c2ccc(OC(C)=O)c(OC(C)=O)c2)cc1OC(C)=O
Out: 1

In: Does the reported remaining activity at 192 µM of the following compound sit strictly below 10%? O=S(=O)(NCc1nc2ccccc2[nH]1)c1ccc(Cl)cc1
Out: 0

In: Does the reported remaining activity at 192 µM of the following compound sit strictly below 10%? COc1c(Cl)cc(Cl)cc1C(=O)NC(=S)Nc1ccc(C(=O)O)cc1
Out: 0

* * *

# TGT: POS-1 (Caenorhabditis elegans)
# Construct: 6-his tag (N); made in house; host or cells: E. coli BL21 (DE3) Gold
# Sequence (G5EF15 80-180): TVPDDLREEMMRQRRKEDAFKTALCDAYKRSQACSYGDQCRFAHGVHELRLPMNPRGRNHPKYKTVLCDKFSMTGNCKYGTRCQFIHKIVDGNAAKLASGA
# TEST_SUMMARY: Fluorescence polarization screening of POS-1 binding to fluorescein-labeled BMF018 RNA
# CONDITION_PARAMETERS: further screening as described above (fluorescence polarization), dose response
pIC50: −log10 of the molar value.
So basically: pIC50 at 4 or higher? That is TRUE. Lower than 4? That is FALSE.

Sample answers from the record:
In: hey, is pIC50 for this one >= 4? COc1ccc(S(=O)(=O)Nc2ccccc2NS(=O)(=O)c2ccc(OC)cc2)cc1 [E]
Out: TRUE

In: hey, is pIC50 for this one >= 4? CC(=O)Oc1ccccc1-c1nc2s/c(=C3\C(=O)N(CC(N)=O)c4ccccc43)c(=O)n2n1 [C]
Out: TRUE

In: hey, is pIC50 for this one >= 4? COc1nnc(-c2ccc(C)c(S(=O)(=O)NCC3CCCO3)c2)c2ccccc12 (centres unmarked) [DD]
Out: FALSE

In: hey, is pIC50 for this one >= 4? Sc1nnc(COc2cccc3ccccc23)n1-c1ccccc1 [BO]
Out: TRUE

Read the next record carefully.
In: hey, is pIC50 for this one >= 4? CCS(=O)(=O)Nc1ccccc1NS(=O)(=O)CC [BR]
Out: FALSE

* * *

# TGT: MEX-5 (Caenorhabditis elegans, UniProt Q9XUB2)
# Construct: The fragment of mex-5 containing the TZF domain (amino acids 236-350) was amplified; made in house; host or cells: Escherichia coli JM109
# Sequence (Q9XUB2 236-350): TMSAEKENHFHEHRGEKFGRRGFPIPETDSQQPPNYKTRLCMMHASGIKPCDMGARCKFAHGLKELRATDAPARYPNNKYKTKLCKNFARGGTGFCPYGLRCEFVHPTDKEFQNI
# TEST_SUMMARY: Dose response gel shift assay, MEX-5 with TCR2 RNA
# Format: binding
# CONDITION_PARAMETERS: 120 nM MEX-5, 2-3 nM fluorescein labeled TCR2 RNA
pIC50: −log10 of the molar value.
So basically: pIC50 at 5 or higher? That is Yes. Lower than 5? That is No.

In: hey, is pIC50 for this one >= 5? COc1ccc(Cl)cc1C(=O)Nc1ccc(S(=O)(=O)Nc2nccs2)cc1
Out: No

In: hey, is pIC50 for this one >= 5? CCS(=O)(=O)Nc1ccccc1NS(=O)(=O)CC
Out: No

In: hey, is pIC50 for this one >= 5? COc1ccc(S(=O)(=O)Nc2ccccc2NS(=O)(=O)c2ccc(OC)cc2)cc1
Out: Yes

More entries:
In: hey, is pIC50 for this one >= 5? O=C(CSc1nc2ccccc2s1)Nc1ccc(S(=O)(=O)Nc2nccs2)cc1
Out: No

In: hey, is pIC50 for this one >= 5? O=C1C2CC=C(Cl)CC2C(=O)N1c1nnc[nH]1 (stereo not shown)
Out: Yes

In: hey, is pIC50 for this one >= 5? Sc1nnc(COc2cccc3ccccc23)n1-c1ccccc1
Out: No

* * *

# TGT: POS-1 (Caenorhabditis elegans)
# Construct: 6-his tag (N); made in house; host or cells: E. coli BL21 (DE3) Gold
# TEST_SUMMARY: Dose response gel shift assay, POS-1 with MEX-3 UTR fragment RNA
# Assay type: binding
# CONDITION_PARAMETERS: 120 nM POS-1, 2-3 nM fluorescein labeled MEX-3 UTR fragment RNA
REPORTED_METRIC: IC50 (µM)
Respond numerically; units are µM and should not be typed.

Below are worked cases with known answers.
In: So what does the record say about IC50 for CCS(=O)(=O)Nc1ccccc1NS(=O)(=O)CC ?
Out: 150

In: So what does the record say about IC50 for CC(=O)Oc1ccccc1-c1nc2s/c(=C3\C(=O)N(CC(N)=O)c4ccccc43)c(=O)n2n1 ?
Out: 5.1

More entries:
In: So what does the record say about IC50 for COc1nnc(-c2ccc(C)c(S(=O)(=O)NCC3CCCO3)c2)c2ccccc12 (centres unmarked) ?
Out: 260

In: So what does the record say about IC50 for Sc1nnc(COc2cccc3ccccc23)n1-c1ccccc1 ?
Out: 33

In: So what does the record say about IC50 for COc1ccc(S(=O)(=O)Nc2ccccc2NS(=O)(=O)c2ccc(OC)cc2)cc1 ?
Out: 0.17

* * *

# TGT: POS-1 (Caenorhabditis elegans)
# Construct: 6-his tag (N); made in house; host or cells: E. coli BL21 (DE3) Gold
# TEST_SUMMARY: Fluorescence polarization screening of POS-1 binding to fluorescein-labeled BMF018 RNA
# CONDITION_PARAMETERS: 192 μM test compound; score = polarization relative to no-drug and no-protein controls; 0.25 = 75% inhibition; lowest score = greatest inhibition; read-out: POS-1 score
// returns class 0 unless remaining activity at 192 µM is strictly below 20%, in which case class 1

In: Does the reported remaining activity at 192 µM of the following compound sit strictly below 20%? C#CCSc1nc2sc3c(c2c(=O)n1C)CCC3
Out: class 0

In: Does the reported remaining activity at 192 µM of the following compound sit strictly below 20%? Cc1nnc(NC(=O)c2cccc(C(=O)Nc3nnc(C)s3)n2)s1
Out: class 0

In: Does the reported remaining activity at 192 µM of the following compound sit strictly below 20%? COc1ccccc1C(=O)NC(=S)Nc1ccc(C(=O)O)c(Cl)c1
Out: class 1

In: Does the reported remaining activity at 192 µM of the following compound sit strictly below 20%? CC(=O)Oc1ccccc1-c1nc2s/c(=C3\C(=O)N(CC(N)=O)c4ccccc43)c(=O)n2n1
Out: class 1

In: Does the reported remaining activity at 192 µM of the following compound sit strictly below 20%? Oc1ccccc1-c1n[nH]c(=S)n1Cc1ccccc1
Out: class 0
